Listed here are binders together with their documented association response.
Target: recombinant human OX40 fused to a His-tag (Acro Biosystems, cat. no. OX0-H5224) (human) (UniProt P43489)
Sequence (P43489 29-214 limits assumed): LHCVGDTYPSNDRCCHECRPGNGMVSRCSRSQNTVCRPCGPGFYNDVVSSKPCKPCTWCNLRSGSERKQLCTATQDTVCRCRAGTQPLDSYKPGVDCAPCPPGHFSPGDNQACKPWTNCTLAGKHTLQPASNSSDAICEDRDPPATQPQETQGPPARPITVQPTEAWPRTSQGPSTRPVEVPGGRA
Assay: BLI cross-block; first Ab (competitor): IgG1-CD134-003-HC6LC2-RR
Enter your answer as a number in nm; do not include the unit.

Here is how some binders turned out for association response.
# Binder, Scale Unit, Reported Measurement
rows = [
    ("IgG1-CD134-ABBV368 (antibody, INN chains, looked up, V domains shown, IgG1) VH: EVQLVESGGGLVQPGGSLRLSCAASGFTFSRYGMSWVRQAPGKGLELVATINSNGGRTYYPDSVKGRFTISRDNAKNSLYLQMNSLRAEDTAVYYCAREGITTAYAMDYWGQGTTVTVSS VL: DIVMTQSPDSLAVSLGERATINCKASQSVDYDGDSYMHWYQQKPGQPPKLLIYAASILESGVPDRFSGSGSGTDFTLTISSLQAEDVAVYYCQQSNEDPRTFGGGTKVEIK", "nm", 1.68),
    ("IgG1-CD134-RG7888 (antibody, INN chains, looked up, V domains shown, IgG1) VH: EVQLVQSGAEVKKPGASVKVSCKASGYTFTDSYMSWVRQAPGQGLEWIGDMYPDNGDSSYNQKFRERVTITRDTSTSTAYLELSSLRSEDTAVYYCVLAPRWYFSVWGQGTLVTVSS VL: DIQMTQSPSSLSASVGDRVTITCRASQDISNYLNWYQQKPGKAPKLLIYYTSRLRSGVPSRFSGSGSGTDFTLTISSLQPEDFATYYCQQGHTLPPTFGQGTKVEIK", "nm", 1.38),
    ("IgG1-CD134-Hu106 (antibody, from another filing, V domains shown) VH: QVQLVQSGSELKKPGASVKVSCKASGYTFTDYSMHWVRQAPGQGLKWMGWINTETGEPTYADDFKGRFVFSLDTSVSTAYLQISSLKAEDTAVYYCANPYYDYVSYYAMDYWGQGTTVTVSS VL: DIQMTQSPSSLSASVGDRVTITCKASQDVSTAVAWYQQKPGKAPKLLIYSASYLYTGVPSRFSGSGSGTDFTFTISSLQPEDIATYYCQQHYSTPRTFGQGTKLEIK", "nm", 1.39),
]

Proceed to the following item.
Prompt: Tell us which association response value is on record for IgG1-CD134-MEDI0562 (antibody, INN chains, looked up, V domains shown, IgG1) VH: QVQLQESGPGLVKPSQTLSLTCAVYGGSFSSGYWNWIRKHPGKGLEYIGYISYNGITYHNPSLKSRITINRDTSKNQYSLQLNSVTPEDTAVYYCARYKYDYDGGHAMDYWGQGTLVTVSS VL: DIQMTQSPSSLSASVGDRVTITCRASQDISNYLNWYQQKPGKAPKLLIYYTSKLHSGVPSRFSGSGSGTDYTLTISSLQPEDFATYYCQQGSALPWTFGQGTKVEIK
Response: 1.73
